// data source = PubChem BioAssay

tested on: XIP peptide (Xip251-270) binding; assay: small-molecule binders of XIP peptide, primary screen, biochemical, small-molecule microarray, fluorescence 635/667 nm, 0.1 µg/mL protein (AID 1182); conditions: fluorescent protein binding, 635 nm, higher = more signal, called active from +8 up or from −8 down
Grouping rule (composite z-score): lower: < -0.2; middle: ≥ -0.2 and < 0.2; upper: ≥ 0.2

Examples from the recorded data:
MOLECULE | LABEL CLASS
CN1C(=O)C2C=CC(C(O)C(c3ccccc3)c3ccccc3)N(NC(=O)OC(C)(C)C)C2C1=O (centres undefined) | upper
C[C@H](c1ccccc1)N1C(=O)[C@H]2[C@@H]3C(=CC[C@H]2C1=O)C(=O)[C@H]1O[C@H]1[C@H]3O | lower

# input Where would COC(=O)CC=C[C@H](C)[C@@H](OCc1ccccc1Br)C(C)C land among the classes by reported composite z-score?
# output upper

# input Input O=C1O[C@@H](c2ccccc2)[C@@H](c2ccccc2)N2[C@@H](c3ccccc3OCCO)[C@]3(C(=O)Nc4ccc(C#CCCO)cc43)[C@@H](C(=O)O)[C@H]12 ; output its category
# output middle

* * *

test: small-molecule binders of probe aNOTCH3, primary screen, biochemical, small-molecule microarray, 635/667 nm fluorescence (AID 1120); conditions: higher = more signal;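 further: probe is a biotin-tagged antibody raised against NOTCH3 rather than NOTCH3 protein; score merges spot fluorescence near 667 nm with spot signal to noise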
Listed here are molecules together with their documented composite z-score.
Enter a number only.

# annotated cases, reported composite z-score shown
MOLECULE | VALUE OBSERVED
O=C1[C@H]2[C@H]3[C@H](O)[C@H](O)CC(=NOC[C@@H](O)COCc4ccco4)[C@H]3CC[C@H]2C(=O)N1C1CCCCC1 | 0.0459
CCOC(=O)[C@H](CC(C)C)NC(=O)CCC1CC(OC(=O)NCc2cccc3ccccc23)CC2(CCCC(COC(=O)NCCN3CCOCC3)O2)O1 (some centres undefined) | -0.0014
C[C@@H]1C=CCC(=O)OC[C@H](C)C(=O)N2CCC[C@H]2C(=O)OC1 | -0.143

# input Specify reported composite z-score for the molecule shown: CO[C@@H]1COC(=O)CC=C[C@@H](C)[C@@H]2C=C[C@H](O)[C@@H](COC(=O)CCC[C@H]1C)O2
# output 0.0319

# input Please give measured composite z-score of the following entry: COc1ccc([Si](C)(C)[C@@H]2[C@@H](CCO)O[C@]3(C(=O)N(Cc4ccc(NC(C)=O)cc4)c4ccccc43)[C@H]2C)cc1
# output 0.217

# input Give the reported value of composite z-score for this record: CCOc1ccc(N2C(=O)/C(=C/C=C/c3ccccc3OC)S(=O)(=O)C2c2cccc([N+](=O)[O-])c2)cc1 (centres undefined)
# output 0.0762

# input Consider the molecule CC(C)CON=C1C[C@@H](O)[C@@H](O)[C@@H]2[C@@H]3C(=O)N(C[C@@H]4CCCO4)C(=O)[C@@H]3CC[C@H]12 and give its recorded composite z-score.
# output -0.101

# input Give recorded composite z-score. CC(C)=CCCC(C)=CCON=C1[C@H]2CCn3c(=O)n(C)c(=O)n3[C@H]2[C@H](O)[C@@H]2O[C@H]12
# output 0.0297

* * *

target: Alpha-bungarotoxin (Bungarus multicinctus); assay: alpha-bungarotoxin binders on microarray, profiling panel, artefact control for SMM control protein annotation, biochemical, small-molecule microarray, Alexa647 label, 635/667 nm fluorescence (AID 1117); conditions: alpha-BTX-A647 binding fluorescence, higher = more signal
Using composite z-score as the sorting value, the categories are interval 1: < 0.1; interval 2: ≥ 0.1 and < 1; interval 3: ≥ 1

MOLECULE | LABEL CLASS
C#C[C@@H](CC)O[Si](C#Cc1ccc(Oc2ccccc2)cc1)(C(C)C)C(C)C | interval 1
COC(=O)[C@H](C)NC(=O)CCC1CC(OC(=O)NCCc2ccc(F)cc2)CC2(CCCC(COC(=O)NCCc3ccc(Cl)cc3)O2)O1 (stereo not given in full) | interval 2
CCN1C(=O)[C@H]2[C@H]3[C@H](O)[C@H](O)CC(=NOC[C@@H](C)[C@H](OCc4ccccc4)C(C)C)[C@@H]3CC[C@H]2C1=O | interval 2
C=CC[C@@H]1C=C[C@H](ON=Cc2ccc(C(=O)N3[C@H](c4ccc(C)cc4)[C@@H](C)CC[C@H]3C(=O)OC)cc2)[C@@H](CO)O1 | interval 1
COc1ccc(COC(=O)NN=C2C[C@@H](O)[C@@H](O)[C@@H]3[C@@H]4C(=O)N(c5ccc(F)cc5F)C(=O)[C@@H]4CC[C@@H]23)cc1 | interval 2
COC(=O)C1=C(C)[C@@H](O)[C@@H](C)[C@H](c2c(OC)c(OC)c(C)c(OC)c2OC)O1 | interval 2
CCc1cc2c(nc1CC)CCN(CCC(C)=NOC(C)CN1CCCc3nc(C)c(C)cc31)C2 (stereo not given) | interval 3
O=C1O[C@@H](c2ccccc2)[C@@H](c2ccccc2)N2[C@@H](c3ccc(O)cc3)[C@]3(C(=O)Nc4ccccc43)[C@@H](C(=O)O)[C@H]12 | interval 1
O=C1[C@H]2[C@H]3[C@H](O)[C@H](O)CC(=NO[C@@H]4O[C@H](CO)[C@@H](O)[C@H](O)[C@H]4O)[C@@H]3CC[C@H]2C(=O)N1Cc1ccccc1 | interval 1
C=CC[C@]1(C(=O)NCc2ccccc2)N=C(c2ccc(OCCCO)cc2)O[C@H]1c1ccccc1 | interval 3

# input Band of CC(C)NC(=O)[C@@]1(C)c2ccccc2C(=O)N(Cc2cc(F)cc(C(F)(F)F)c2)[C@H]1c1ccc(CO)cc1 ?
# output interval 3

# input Which composite z-score band matches COC(=O)[C@H](C)NC(=O)[C@@H](C)CO ?
# output interval 2
